Test system: NCI-H1993
assay_protocol: Growth inhibition of CDK9-positive tumor cell line in vitro
Type: cell-based
experimental_parameters: Human lung cancer, read-out: Inhibitory activity (IC50) on growth in vitro, NCI-H1993
pIC50: −log10 of the molar value.
reported_endpoint: pIC50

CC(C)N1CCN(c2cccc(Nc3ncc(F)c(-n4cc(C(N)=O)c5ccccc54)n3)c2)CC1; 8.00 to 9.00
CCN1CCN(c2cccc(Nc3ncc(F)c(-n4cc(C(N)=O)c5cc(F)ccc54)n3)c2)CC1; 7.00 to 8.00
NC(=O)c1cn(-c2nc(Nc3cccc(N4CCN(C5CCOCC5)CC4)c3)ncc2F)c2ccccc12; 8.00 to 9.00
CCN1CCN(c2cccc(Nc3ncc(F)c(-n4cc(C(N)=O)c5cc(OC)ccc54)n3)c2)CC1; 8.00 to 9.00
